List of binding signal values.
# Experimental System: RELA (p65) subunit of heterodimer;p50 subunit (Homo sapiens;Homo sapiens, UniProt Q04206;P19838 1-307;7-356)
# Sequence (Q04206 1-307, chain 1 of 2): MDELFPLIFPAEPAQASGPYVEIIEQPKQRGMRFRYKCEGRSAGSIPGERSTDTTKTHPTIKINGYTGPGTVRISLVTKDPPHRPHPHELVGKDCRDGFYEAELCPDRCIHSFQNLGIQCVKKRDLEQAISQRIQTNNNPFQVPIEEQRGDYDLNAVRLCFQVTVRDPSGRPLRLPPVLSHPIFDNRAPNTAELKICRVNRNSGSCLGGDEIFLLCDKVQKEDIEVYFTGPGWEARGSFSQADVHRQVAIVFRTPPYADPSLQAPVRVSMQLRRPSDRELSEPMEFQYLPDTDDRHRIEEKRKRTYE
# Sequence (P19838 7-356, chain 2 of 2): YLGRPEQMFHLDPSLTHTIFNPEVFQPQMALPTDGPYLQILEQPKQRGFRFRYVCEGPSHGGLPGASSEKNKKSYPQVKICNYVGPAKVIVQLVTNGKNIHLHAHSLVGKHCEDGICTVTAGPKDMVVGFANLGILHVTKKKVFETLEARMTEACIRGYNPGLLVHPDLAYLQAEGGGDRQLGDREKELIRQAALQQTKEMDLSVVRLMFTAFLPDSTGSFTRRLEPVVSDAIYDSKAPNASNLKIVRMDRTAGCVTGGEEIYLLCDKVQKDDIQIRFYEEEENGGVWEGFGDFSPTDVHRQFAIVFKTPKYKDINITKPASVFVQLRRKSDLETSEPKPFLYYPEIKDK
# Test Description: protein binding microarray; high values mean tight binding
# Protocol Conditions: dsDNA, one strand shown
Numbers only here, please. The scale is z-score.

[in] Read the entry `AGATTTATCCC` and write its reported binding signal.
[out] -0.321

[in] Return binding signal (reported value) for this sequence: `CAATAACTCCC`
[out] 0.38

[in] Please look at this sequence and report its binding signal: `AGAGAGGTCCT`
[out] -0.866

[in] Entry `AGGGTTGCCCT` needs its binding signal filled in; supply it.
[out] -0.681

[in] Please supply the value of reported binding signal for the item `CGGTGCCTCCT`
[out] -0.873

Further cases:
[in] Identify the reported binding signal for the following entry. `GAAAGTGCCCC`
[out] 0.655

[in] Tell me binding signal reported for `CAAATAATCCT`
[out] -0.911

[in] Identify measured binding signal corresponding to `AAGTGGGTCCC`
[out] -0.468

[in] Retrieve binding signal measured for `GGGTACTCCCC` and print it.
[out] 1.82
